Test system: Trichophyton mentagrophytes
METHOD_NOTES: anti-fungal growth inhibition, T. mentagrophytes
Format: cell-based
TEST_CONDITIONS: Trichophyton mentagrophytes, 168 h; T. mentagraphytes, 50 μM, one week, 30° C., OD 510 nm; read-out: Inhibition rate (50 μM)
Rule: t for inhibition at 50 µM not less than 10%, f for anything less.

>>> category("C=CCOc1ccc(CCc2cc(OCC=C)cc(OCC=C)c2)cc1 [DR3]")
"f"
>>> category("C=CC(=O)Oc1ccc(CCc2cc(OC(=O)C=C)cc(OC(=O)C=C)c2)cc1 [DR8]")
"t"
>>> category("Oc1ccc(/C=C/c2cc(O)cc(O)c2)cc1 [Trans-resveratrol, trans-resveratrol, reference compound]")
"t"

Given CC(C)(C)C(=O)Oc1ccc(CCc2cc(OC(=O)C(C)(C)C)cc(OC(=O)C(C)(C)C)c2)cc1 [DR11] , state whether its inhibition at 50 µM is at least 10%.
t
